target: Protein cereblon/ALK tyrosine kinase receptor (Homo sapiens, UniProt Q96SW2+Q9UM73); assay: PROTAC activity at CRBN/ALK in human NCI-H3122 cells assessed as induction of ALK degradation incubated for 24 hrs by Western blot analysis
Sequence (Q9UM73 whole entry): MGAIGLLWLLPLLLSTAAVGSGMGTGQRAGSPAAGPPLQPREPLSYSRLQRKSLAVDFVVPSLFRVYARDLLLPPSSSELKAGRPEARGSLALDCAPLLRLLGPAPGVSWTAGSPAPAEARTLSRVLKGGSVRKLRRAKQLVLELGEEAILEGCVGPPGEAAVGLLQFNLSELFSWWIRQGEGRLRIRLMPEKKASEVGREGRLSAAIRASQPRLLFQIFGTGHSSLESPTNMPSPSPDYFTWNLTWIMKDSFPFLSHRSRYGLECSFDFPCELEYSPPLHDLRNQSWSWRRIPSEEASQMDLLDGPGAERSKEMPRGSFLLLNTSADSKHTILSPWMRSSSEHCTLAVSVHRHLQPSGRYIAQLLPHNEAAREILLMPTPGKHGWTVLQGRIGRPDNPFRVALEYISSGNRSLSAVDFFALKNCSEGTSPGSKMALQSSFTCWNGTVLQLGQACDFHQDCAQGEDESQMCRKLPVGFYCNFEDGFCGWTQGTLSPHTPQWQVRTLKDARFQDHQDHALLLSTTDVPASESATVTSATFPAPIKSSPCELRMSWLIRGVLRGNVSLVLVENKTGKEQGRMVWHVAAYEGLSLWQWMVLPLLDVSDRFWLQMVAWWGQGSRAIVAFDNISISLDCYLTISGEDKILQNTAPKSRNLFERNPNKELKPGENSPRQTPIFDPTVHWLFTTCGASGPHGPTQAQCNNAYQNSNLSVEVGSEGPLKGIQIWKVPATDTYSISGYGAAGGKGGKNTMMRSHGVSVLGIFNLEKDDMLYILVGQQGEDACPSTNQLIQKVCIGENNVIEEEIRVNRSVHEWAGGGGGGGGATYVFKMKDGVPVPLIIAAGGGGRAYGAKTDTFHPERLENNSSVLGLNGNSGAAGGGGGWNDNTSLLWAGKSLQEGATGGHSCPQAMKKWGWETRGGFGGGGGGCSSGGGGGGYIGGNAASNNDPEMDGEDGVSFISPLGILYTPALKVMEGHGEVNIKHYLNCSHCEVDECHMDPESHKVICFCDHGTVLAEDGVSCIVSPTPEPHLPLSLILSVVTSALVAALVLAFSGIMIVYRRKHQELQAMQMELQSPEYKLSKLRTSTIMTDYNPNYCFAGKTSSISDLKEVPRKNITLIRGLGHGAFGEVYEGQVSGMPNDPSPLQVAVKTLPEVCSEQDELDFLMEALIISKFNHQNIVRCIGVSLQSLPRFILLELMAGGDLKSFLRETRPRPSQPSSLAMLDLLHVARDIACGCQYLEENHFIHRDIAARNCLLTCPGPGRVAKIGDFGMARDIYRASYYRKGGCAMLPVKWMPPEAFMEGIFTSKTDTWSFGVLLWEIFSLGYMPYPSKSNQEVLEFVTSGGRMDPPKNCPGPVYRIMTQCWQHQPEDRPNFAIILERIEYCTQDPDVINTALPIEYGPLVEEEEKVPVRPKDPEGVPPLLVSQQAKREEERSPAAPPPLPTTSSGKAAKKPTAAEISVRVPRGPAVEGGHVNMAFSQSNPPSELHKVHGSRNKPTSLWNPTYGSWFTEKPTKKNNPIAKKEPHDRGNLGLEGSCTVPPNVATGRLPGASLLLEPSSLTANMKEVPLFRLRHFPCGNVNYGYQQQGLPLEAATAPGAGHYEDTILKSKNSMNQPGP
Sequence (Q96SW2 whole entry): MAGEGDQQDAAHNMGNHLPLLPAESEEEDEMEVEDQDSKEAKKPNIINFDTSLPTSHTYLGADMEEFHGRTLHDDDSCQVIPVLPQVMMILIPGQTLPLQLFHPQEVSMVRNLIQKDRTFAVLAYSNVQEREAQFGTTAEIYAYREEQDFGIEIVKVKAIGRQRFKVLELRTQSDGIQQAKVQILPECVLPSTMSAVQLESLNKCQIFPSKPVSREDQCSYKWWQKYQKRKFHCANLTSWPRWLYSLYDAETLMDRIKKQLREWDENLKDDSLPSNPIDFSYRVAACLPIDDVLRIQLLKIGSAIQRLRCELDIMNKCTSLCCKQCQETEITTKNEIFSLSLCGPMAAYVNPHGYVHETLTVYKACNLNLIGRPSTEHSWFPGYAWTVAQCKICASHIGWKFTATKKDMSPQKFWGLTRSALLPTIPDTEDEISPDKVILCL
Outcome measure: EC50 (µM)
Form entry: value (µM) — number only.

Challenge: Identify EC50 associated with the molecule Cc1cc(Nc2ncc(Cl)c(Nc3ccccc3S(=O)(=O)C(C)C)n2)c(OC(C)C)cc1C1CCN(C(=O)CCCCCCC(=O)N(CCS)CC(=O)NCCNc2cccc3c2C(=O)N(C2CCC(=O)NC2=O)C3=O)CC1 (stereo unspecified)
Response given: 0.69

----------
Reported IC50 values follow for various compounds
test system: NCI-H2228; experiment: Antiproliferative activity against human NCI-H2228 cells assessed as inhibition of cell growth incubated for 3 to 5 days by MTT assay; format: functional, cell-based
Form entry: value (µM) — number only.

Known results for compounds:
1) CC(=O)c1c(C)c2cnc(Nc3ccc(N4CCN(CC(=O)NCCSSCCN(CC(=O)Nc5cccc6c5C(=O)N(C5CCC(=O)NC5=O)C6=O)C(=O)CCCCC(=O)N5CCC(c6cc(OC(C)C)c(Nc7ncc(Cl)c(Nc8ccccc8S(=O)(=O)C(C)C)n7)cc6C)CC5)CC4)cn3)nc2n(C2CCCC2)c1=O (configuration not stated) :: 13
2) CC(=O)c1c(C)c2cnc(Nc3ccc(N4CCN(CC(=O)NCCSSCCN(CC(=O)NCCNc5cccc6c5C(=O)N(C5CCC(=O)NC5=O)C6=O)C(=O)CCCCC(=O)N5CCC(c6cc(OC(C)C)c(Nc7ncc(Cl)c(Nc8ccccc8S(=O)(=O)C(C)C)n7)cc6C)CC5)CC4)cn3)nc2n(C2CCCC2)c1=O (configuration not stated) :: 9.58
3) Cc1cc(Nc2ncc(Cl)c(Nc3ccccc3S(=O)(=O)C(C)C)n2)c(OC(C)C)cc1C1CCNCC1 [CERITINIB] :: 0.58

Next compound, IC50 to be filled in.
Challenge: Identify IC50 associated with the compound CC(=O)c1c(C)c2cnc(Nc3ccc(N4CCNCC4)cn3)nc2n(C2CCCC2)c1=O [PALBOCICLIB]
Response given: 1.62
